Tested on: MS2 coat protein
PROTOCOL DESCRIPTION: apparent Kd, MS2 coat protein; higher = weaker binding; RNA-MaP array; FMN 200 µM where present
PROTOCOL CONDITIONS: designed as: OFF switch for flavin mononucleotide; no ligand
Threshold rule: apparent Kd greater than or equal to 20 nM is yes; below that, no.

These recorded examples may help you get a feel for the data.
## Task // inclusive: apparent Kd at least 20 nM? input: GUAGAGUAAGGAUAUUGUGAAUAGGAUAGAAUGGUUAGAAACAAGAAGGUACAUGAGGAUCACCCAUGUAAUGU
## Result yes

## Task In plain terms: is recorded apparent Kd at least 20 nM for ACCAUUUACUAAUUAUCUAUACAUGAGGAUCACCCAUGUUAAGAGGAUAUCAUCGUGAAACACGAUGAGAAGGCUUAGCAUUCG ?
## Result yes

## Task Please check the record AAGAUGCGGGUAGGAUAUGGAGAGAAAGAAAGACCAGAAGGACUGGUCACACAACAUGAGGAUCACCCAUGUGUGUGUUGCGAA and state if its apparent Kd is at or above 20 nM.
## Result no

## Task Threshold query (apparent Kd >= 20 nM) on GUGACGAAUGUAGGAUAUGCUGAGGAAUACUCAGCAGAAGGACAUGAGGAUCACCCAUGUACUAAUAGUGAUAAUAAACGUCAC
## Result no

## Task Decide: is the reported value of apparent Kd for GCAUUGUAAGGAUAUACGUGCAAAGUUUUCGCUGUAAGUCGACAUGAGGAUCACCCAUGUAGAAGGUAUAUGGU equal to or greater than 20 nM?
## Result yes

## Task Assess whether reported apparent Kd for GAAUAAUUGAUCCAUUUUUAAAACAUGAGGAUCACCCAUGUGCAGGAUAUCGUGAGAGUUAAAUACGAGAAGGGCAAGAACUGU sits at 20 nM or higher.
## Result yes

## Task Evaluate GAAGAUGGUGAGGAUAUCAUUAACCACAUCGGAUGAGAAGGUACCACAUGAGGAUCACCCAUGUACAUAUUACU : apparent Kd at minimum 20 nM?
## Result yes

## Task Does apparent Kd meet or surpass 20 nM for AGUCAGAGCAGAGGAUAUAUACAUGAGGAUCACCCAUGUGACUGACUAUGCUAGAAAUAGUAUGUAUAGAAGGCUGCUCUGACA ?
## Result yes

More entries:
## Task Answer whether apparent Kd of UCGAUCGGAGGAUAUACUAAUACAACUACUGAAGUGUCAAAACAUGAGGAUCACCCAUGUAGAAGGCCGAUAUA is greater than or equal to 20 nM.
## Result yes

## Task Textbook exercise: given the entry UCGUGUUAUACAGGAUAUGUUUAGGUUUAUUCAUUCAGUUAUUAAUUUAUGACAGAAGGGUAUACAUGAGGAUCACCCAUGUCA , state whether its apparent Kd is greater than or equal to 20 nM.
## Result yes

## Task Textbook exercise: given the entry AAAAACAGAGGAUAUACAAAAUGAUGACGAAAGUCAUCAAAACAUGAGGAUCACCCAUGUAGAAGGCUGAAAAA , state whether its apparent Kd is greater than or equal to 20 nM.
## Result yes

* * *

Test system: MS2 coat protein
PROTOCOL DESCRIPTION: apparent Kd, MS2 coat protein; higher = weaker binding; RNA-MaP array; FMN 200 µM where present
PROTOCOL CONDITIONS: ligand present: flavin mononucleotide; designed as: OFF switch for flavin mononucleotide
PROPERTY NAME: apparent Kd (nM)
Field: numeric (nM). Do not append units.

Please review the entries below; each comes with its answer.
## Task Fill in the recorded apparent Kd for this sequence, with MS2 coat protein as test system: GGGCACGGAGGAUAUACAUGAGGAUCACCCAUGUGAUUAGGGCAGUACUUGCCGAUCCGUAGAAGGUUGGCCGA
## Result 26.8

## Task Recorded apparent Kd for GUAGGGUCAGGAUAUACUGGCUGAGGGAUGUAUUGUAGUUGGUAGAAGGGACAUGAGGAUCACCCAUGUAAGAA with MS2 coat protein, please?
## Result 26.1

## Task Could you share what apparent Kd was measured for GUGGUAUUCGUAGGAUAUCCGUCGCCACCGUGUGGAGAAGGACGAACAUGAGGAUCACCCAUGUAUCAUGGUGUGGACGCUGUC , tested on MS2 coat protein?
## Result 86.6

## Task So what apparent Kd did GCAUUGUAAGGAUAUACGUGCAAAGUUUUCGCUGUAAGUCGACAUGAGGAUCACCCAUGUAGAAGGUAUAUGGU get with MS2 coat protein?
## Result 24.1

## Task Give the reported apparent Kd for UUUCUCGGCGAGAAGGGAGUACAUGAGGAUCACCCAUGUGGUCCAUGGAGCUCAGGAUAUCGCGAGGUCGAUGUCGACGGAGUA (system: MS2 coat protein).
## Result 231

New cases:
## Task Provide value of apparent Kd for this record tested with MS2 coat protein: CUCCGGCGUGUAGGAUAUGGAUCCGAUUAGGAUCCAGAAGGACAUGAGGAUCACCCAUGUACAUGUAAACAGUCAUCACCGGAA
## Result 18.8

## Task apparent Kd of UUAUUAAGUGUGAGGAUAUGCUGGUCCUUGGAUCAGCAGAAGGCACAUGAGGAUCACCCAUGUACAAUAUAUUA on MS2 coat protein?
## Result 251

## Task Return apparent Kd measured with MS2 coat protein given this sequence: GUCAGUCGAGGAUAUACGAUCGUGCUUCGGCACGUAAGAUCACAUGAGGAUCACCCAUGUAGAAGGCGACUGAC
## Result 257

## Task Lab note: need apparent Kd for GAGGACUGUAAAUUAACUCAAAUACAUGAGGAUCACCCAUGUAAGGAUAUCGUCAGGAAUACUGACGAGAAGGUACAUCAGUCC on MS2 coat protein, anyone have it?
## Result 20

## Task Request - read-out apparent Kd | tested on MS2 coat protein | sequence GCACGGCAUGUAGGAUAUCGAGCUCCGGGAGCUCGAGAAGGACAUGAGGAUCACCCAUGUGCUCACAGUGAGUGAGCGCUGUGC
## Result 93.5

## Task Field: apparent Kd (MS2 coat protein). Entry: UUUUUUGUUGUGAGGAUAUCGUUGUUGUUGUGGAUCGAGAAGGCACAUGAGGAUCACCCAUGUUUGUUGUGGUU
## Result 220

## Task Write down the reported apparent Kd of UUAAGUCAUGUAGGAUAUCCGAGGCGAAGCGUUGGAGAAGGACAUGAGGAUCACCCAUGUUCUAGCGUCUGAGUACAGAUGCAG , test system: MS2 coat protein.
## Result 94.7

* * *

Examples of sequences with documented apparent Kd follow.
System: MS2 coat protein
PROTOCOL DESCRIPTION: apparent Kd, MS2 coat protein; higher = weaker binding; RNA-MaP array
PROTOCOL CONDITIONS: ligand present: flavin mononucleotide; designed as: OFF switch for flavin mononucleotide
State just the number; it will be interpreted in nM.

Example entries and their recorded answers appear below.
## Task Name the recorded apparent Kd for UUAUCGGUCUCAGGAUAUCAGUAUCACUCAUUAUGAGAAGGGAGACACUCCGGAACAUGAGGAUCACCCAUGUGGGCCUUGGGU .
## Result 103

## Task Can you share its apparent Kd? I mean this sequence: UUCACAGUGCAAGGAUAUGACAGUUUACAUGAGGAUCACCCAUGUUGGUCCUAUUCAGAAUGAGAUCAGAAGGUGCUAAUAUGU
## Result 36.1

---
## Task Looking for the measured apparent Kd of CUUGUGGCACAGGAUAUUCCGACGUAAUCAAAUGAAGAAGGGUGCACAUGAGGAUCACCCAUGUGUGAACACAA , can you help?
## Result 26.8

## Task // lookup apparent Kd for AAGUUACACAAGAAGGAGGGCGACUUUUUCACAUGAGGAUCACCCAUGUAUCCUCUUGGAGGAACCUAGGAUAUUGCUAAGCGU
## Result 170

* * *

Measured apparent Kd accompanies every entry in the list below.
Tested on: MS2 coat protein
PROTOCOL DESCRIPTION: apparent Kd, MS2 coat protein; higher = weaker binding; RNA-MaP array; tryptophan 2.4 mM where present
PROTOCOL CONDITIONS: ligand present: tryptophan; designed as: ON switch for tryptophan
Give just the numeric value; nM need not be written.

The following sequences have reported results that may help.
## Task Would you kindly share the measured apparent Kd for AGAAUAUAGUCGGCCGCCACUCUUCAUACAUGAGGAUCACCCAUGUUUAAUUCUUGGAUAUUCUUGAGGACCGGGACAUAGGCAU ?
## Result 16.8

## Task Any idea what apparent Kd was measured for CCUCAAUCGUCGGCCGCCACUGGAUCAUGCGGAUACAUGAGGAUCACCCAUGUGGGUGUGGUACGCAGGACCGGGACAAGACCCG ?
## Result 244

## Task Param item = UGUCGGCGAAAGUUGGCGUGUCUUGCUGGUCGAGGACCGGUACGGCCGCCACUCGAUCCUUCGCACAUGAGGAUCACCCAUGUUG ; retrieve measured apparent Kd.
## Result 28.5

## Task Could you tell me which apparent Kd is on file for CGAGUAAGAACAAUCGAAUAACGGUUUUCGCGAGGACCGGUACGGCCGCCACUCGUGUGAUAUAACACAUGAGGAUCACCCAUGU ?
## Result 24.4

## Task # get_value(readout='apparent Kd', item= AUGGUCGACGAUCUGCGAAAAGCAGAUCGACGAGGACCGGUACGGCCGCCACUCGUGUUCAUUAAACAUGAGGAUCACCCAUGUA )
## Result 21.1

Others:
## Task Give the measured apparent Kd of CUAGAUGGAAACGUCUGGACGCACAAGCGACGAGGACCGGUACGGCCGCCACUCGAAGAGUGGUGGACAUGAGGAUCACCCAUGU .
## Result 39.2

## Task Record request: apparent Kd value, item UAAACUACACAUGAGGAUCACCCAUGUGGCCGAGGACCGGUACGGCCGCCACUCGUGUGUUAAUAAAAGAACUGCAAAGUUCCUU
## Result 86.1
